Test system: NCI-H23 lung
Test: NCI tumour cell line growth inhibition, 48 h
Property: log10(TGI) (log10 of the value in µM)
Recorded TGI (log10, µM)

Field: example entries. Status: answers known.
{"Molecule": "Clc1ccc2c(NCCCNc3nccc(Nc4ccc(Br)cc4)n3)ccnc2c1", "log10(TGI)": 0.51}
{"Molecule": "CCN1CCN(c2ccc(Nc3cc(N(C)C(=O)Nc4c(Cl)c(OC)cc(OC)c4Cl)ncn3)cc2)CC1", "log10(TGI)": 1.65}
{"Molecule": "CC(=O)OC1Oc2ccccc2-c2oc(=O)c(-c3cc(=O)oc4cc(O)ccc34)cc21 (stereo not drawn)", "log10(TGI)": 1.41}

Now for another entry.
Documented log10(TGI) of O=[N+]([O-])c1ccc(/C=N/n2c(CO)nc3ccccc32)o1 : 1.30

* * *

Test system: SK-MEL-5 melanoma
Assay: NCI tumour cell line growth inhibition, 48 h
The entries below are paired with their reported TGI.
Please respond with the number in µM and leave the unit unwritten.

{"Compound": "C/C(=C\\CCc1ccoc1)CC/C=C(\\C)CCCC1=CC(=O)OC1", "Target": "SK-MEL-5 melanoma", "Scale unit": "µM", "TGI": 6.66}
{"Compound": "CC(C)(C)C(=O)OCOP(=O)(OCOC(=O)C(C)(C)C)C1CCCN(O)C1=O (centres undefined)", "Target": "SK-MEL-5 melanoma", "Scale unit": "µM", "TGI": 1.58}
{"Compound": "CC(SC(C)C(=O)N/N=C/c1cccc(Cl)c1)C(=O)N/N=C\\c1cccc(Cl)c1 (centres undefined)", "Target": "SK-MEL-5 melanoma", "Scale unit": "µM", "TGI": 31.4}
{"Compound": "O=Cc1ccc2c(c1)CC1(C2)Cc2ccc3c(c2C1)CCC3 (centres undefined)", "Target": "SK-MEL-5 melanoma", "Scale unit": "µM", "TGI": 15.9}
{"Compound": "CC(C)(C)[SiH]12(OC(C(F)(F)F)(C(F)(F)F)c3ccccc31)OC(C(F)(F)F)(C(F)(F)F)c1ccccc12", "Target": "SK-MEL-5 melanoma", "Scale unit": "µM", "TGI": 22.1}

Now for another entry.
Documented TGI of CCN(CC)CCOc1ccc(/C=C(\C#N)c2ccc(OCCN(CC)CC)cc2)cc1 : 15.9

* * *

Tested on: A498 renal
Experiment: NCI tumour cell line growth inhibition, 48 h
Property: TGI

Field: example entries. Status: answers known.
{"Molecule": "CC(=O)O.CC(=O)O.CC(=O)O.CC(=O)O.CC(=O)O.CC(=O)O.O.[Ti].[Ti]", "TGI": "> 100 µM"}
{"Molecule": "O=C(c1ccc(O)cc1)C1c2c3c(cc(O)c2C(c2ccc(O)cc2)C1c1cc(O)cc(O)c1)OC(c1ccc(O)cc1)C3c1cc2c(cc1O)OC(c1ccc(O)cc1)C2c1cc(O)cc(O)c1 (stereo not given)", "TGI": "> 12.5 µM"}
{"Molecule": "C/C1=C\\CC[C@@]2(C)O[C@@H]2[C@H]2OC(=O)[C@@H](CN(C)C)[C@@H]2CC1", "TGI": "44.9 µM"}

Documented TGI of Clc1c(Cl)c(Cl)c2nn(C3CCCO3)nc2c1Cl (stereo not given) : > 100 µM

Documented TGI of COc1cc(C2c3cc4c(cc3OC(N3CCCC3)C2C)OCO4)cc(OC)c1O (stereo not given) : 56.9 µM
